target: Fuc(a1-2)Gal(b1-4)GlcNAc(b1-3)[Fuc(a1-2)Gal(b1-4)GlcNAc(b1-6)]GalNAc; test: glycan array binding signal (z-score within array); higher = stronger binding; details: glycan notation: IUPAC condensed, linker removed
This is one part of a sample in which the strongest signals are shown more often than they occur.
observable: glycan array binding signal (z-score)

binder	recorded value
EULS2 M1 (Oryza sativa) (protein) MVYCRANPNYAMTARNGAVVLAPANPKDEYQHWIKDMRWSTSIKDEEGYPAFALVNKATGQAIKHSLGQSHPVRLVPYNPEVMDESVLWTESRDVGNGFRCIRMVNNIYLNFDAFHGDKYHGGVRDGTDIVLWKLCEGDNQRWKIQPYYILEQKLISEEDLNSAVDHHHHHH	-0.457
